- assayed.system: UniProt O60674
- Sequence (O60674 whole entry): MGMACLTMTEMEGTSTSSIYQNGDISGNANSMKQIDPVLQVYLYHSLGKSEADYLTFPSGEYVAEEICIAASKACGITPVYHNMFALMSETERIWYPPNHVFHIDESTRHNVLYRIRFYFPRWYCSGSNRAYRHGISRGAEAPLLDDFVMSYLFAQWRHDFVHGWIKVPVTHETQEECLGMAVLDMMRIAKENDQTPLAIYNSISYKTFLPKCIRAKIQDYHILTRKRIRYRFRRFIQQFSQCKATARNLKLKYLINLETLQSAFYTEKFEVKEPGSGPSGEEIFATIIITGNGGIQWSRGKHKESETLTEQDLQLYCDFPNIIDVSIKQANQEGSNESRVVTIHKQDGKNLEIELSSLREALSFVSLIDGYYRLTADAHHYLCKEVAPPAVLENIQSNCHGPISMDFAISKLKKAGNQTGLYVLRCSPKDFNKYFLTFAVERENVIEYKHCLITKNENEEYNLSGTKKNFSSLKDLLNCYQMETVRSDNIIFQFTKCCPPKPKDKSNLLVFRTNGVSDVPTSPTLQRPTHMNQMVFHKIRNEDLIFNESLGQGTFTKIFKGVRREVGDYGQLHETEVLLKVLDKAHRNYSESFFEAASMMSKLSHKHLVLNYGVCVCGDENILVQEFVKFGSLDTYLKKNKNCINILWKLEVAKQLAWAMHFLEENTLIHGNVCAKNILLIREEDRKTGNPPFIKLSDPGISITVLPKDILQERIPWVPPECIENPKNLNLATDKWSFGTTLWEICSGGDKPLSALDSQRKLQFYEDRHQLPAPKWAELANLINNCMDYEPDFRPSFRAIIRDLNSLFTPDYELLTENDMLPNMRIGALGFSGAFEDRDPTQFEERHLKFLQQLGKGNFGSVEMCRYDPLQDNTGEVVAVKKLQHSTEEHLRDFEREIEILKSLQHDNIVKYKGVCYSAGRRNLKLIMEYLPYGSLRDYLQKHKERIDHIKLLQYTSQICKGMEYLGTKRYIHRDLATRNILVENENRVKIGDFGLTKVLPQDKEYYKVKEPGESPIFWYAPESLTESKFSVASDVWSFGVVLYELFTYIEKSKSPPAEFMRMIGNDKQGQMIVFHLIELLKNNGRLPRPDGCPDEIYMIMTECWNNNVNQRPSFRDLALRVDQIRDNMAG
- assay.summary: Inhibition of JAK kinase activity, EZ Reader microfluidic phosphorylation of peptide substrate: JAK2
- Assay type: biochemical
- stated.conditions: JAK2 kinase 1 nM; highest final concentration 10 μM, 1:3 serial dilution, 8 points, duplicates
readout: IC50

Here is how some compounds turned out for IC50.
INSERT INTO assay_data (compound, readout, experimental_result) VALUES
  ('CCOCCS(=O)(=O)N1CC(CC#N)(n2cc(-c3ccnc(Nc4cnn(C)c4)n3)cn2)C1', 'IC50', '0.1 to 1 µM'),
  ('Cn1cc(Nc2nccc(-c3cnn(C4CN(C(=O)CC(F)(F)F)C4)c3)n2)cn1', 'IC50', '≥ 10 µM');

Noted IC50 for `CCCS(=O)(=O)N1CC(CC#N)(n2ccc(-c3ccnc(Nc4cnn(C)c4)n3)c2)C1` , tested on UniProt O60674: 0.1 to 1 µM

Noted IC50 for `Cn1cc(Nc2nccc(-c3cnn(C4(CC#N)CN(S(=O)(=O)C5CCOCC5)C4)c3)n2)cn1` , tested on UniProt O60674: 0.1 to 1 µM

Noted IC50 for CCC(=O)N1CCC(n2cc(-c3ccnc(Nc4cnn(C)c4)n3)cn2)C1 (stereo not drawn) , tested on UniProt O60674: ≥ 10 µM

Noted IC50 for `Cn1cc(Nc2nccc(-c3cnn(C4CN(C(=O)C5CC5)C4)c3)n2)cn1` , tested on UniProt O60674: ≥ 10 µM
